# target: NMDA receptor
# test description: NMDA-specific L-[3H]glutamate receptor binding assay, synaptic plasma membranes
# condition summary: L-[3H]glutamate 12.5 nM, Triton X-100 treated SPM, 0-4° C., 10 min
endpoint: pKi
// pKi is dimensionless: -log10 of concentration (M)

Query: Form field: reported pKi of CCOP(=O)(O)Cc1ccc(C(N)C(=O)O)cc1 (centres unmarked) [VII, 4-(Ethylphosphonomethyl)phenylglycine]
Result: 4.15

Query: Form field: reported pKi of Cc1cc(C(N)C(=O)O)c(C)cc1CP(=O)(O)O.Cl (centres unmarked) [X, hydrochloride]
Result: 4.67

Query: Form field: reported pKi of NC(C(=O)O)c1ccc(CP(=O)(O)O)cc1 (centres unmarked) [Example VI, 4-(Phosphonomethyl)phenylglycine]
Result: 5.41

Query: Form field: reported pKi of NC(CCCCCP(=O)(O)O)C(=O)O (racemic) [D,L-AP7, D,L-2-amino-7-phosphonoheptanoic acid, reference compound]
Result: 5.27

Query: Form field: reported pKi of N[C@H](CCCCCP(=O)(O)O)C(=O)O [D-AP7, reference compound]
Result: 5.40
